Test system: DMM mice
Protocol description: DMM drug treatment study: OARSI scoring and histomorphometry of knee cartilage
Format: in vivo, mouse
Condition context: daily ip week 8 to 12
Readout kind: cartilage degeneration (Safranin-O and Fast Green histology)

Molecule	Reported
Fc1ccc([C@@H]2CCNC[C@H]2COc2ccc3c(c2)OCO3)cc1 [paroxetine]	reduced
O=C1OC2(c3ccccc31)c1ccc(O)c(O)c1Oc1c2ccc(O)c1O [gallein]	reduced
